Hi there, I'd appreciate the recorded viability at 28.5 h, 10 µM for every entry that follows.
test: in vitro; settings: human, hela cells, % viability
Numbers only, in %.

Look over these answered cases.
OCCCn1c(-c2ccc(Cl)cc2)cn2c3ccccc3nc12 | 103
O=C(CC1CCN(C(=O)Cc2ccccc2)CC1)NC1(c2ccccc2)CCCC1 | 101

Look at each molecule and report its viability at 28.5 h, 10 µM.
1. Nc1ncc(-c2cncnc2)nc1-c1ccc(CCC(=O)O)cc1
2. NC(=O)C1(N2CCCCC2)CCN(CC(=O)Nc2ccc(Br)cc2)CC1
3. CC(C)Nc1cncc(OCC2CN(C)CCN2C)n1 (stereo not drawn)
4. Cc1ccc(NC(=O)Cn2cnc3c2c(=O)n(C)c(=O)n3C)nc1

1: 102; 2: 86.2; 3: 87.7; 4: 95.9
